TEST NAME: Rate of reaction with 4 mM glutathione (stability study, HPLC)
Assay type: physicochemical
COND: 4 mM glutathione (GSH), aqueous pH 7.4 phosphate buffered saline, 37° C.
OUTCOME MEASURE: t½ (min) Mean (SE)

CHEMICAL SMILES | OUTCOME MEASURE | MEASUREMENT
CCOC(=O)N1CCCN(/[N+]([O-])=N/Oc2cc(OC)c([N+](=O)[O-])cc2[N+](=O)[O-])CC1 | t½ (min) Mean (SE) | 59.6 (4.2) min
CCOC(=O)N1CCN(/[N+]([O-])=N/Oc2cc(C)c([N+](=O)[O-])cc2[N+](=O)[O-])CC1 | t½ (min) Mean (SE) | 71.5 (4.3) min
CCOC(=O)N1CCCN(/[N+]([O-])=N/Oc2cc(C)c([N+](=O)[O-])cc2[N+](=O)[O-])CC1 | t½ (min) Mean (SE) | 25.7 (1.0) min

*Q* Output t½ (min) Mean (SE) of `CCOC(=O)N1CCN(/[N+]([O-])=N/Oc2cc(OC)c([N+](=O)[O-])cc2[N+](=O)[O-])CC1`
*A* 38.6 (2.8) min

* * *

Test system: H1395/CRL5868
TEST NAME: MTT proliferation assay, JS-K 48 h (Example 3)
Format: cell-based, human
COND: 10 concentrations 50 nM to 50 μM
OUTCOME MEASURE: IC50 (µM)
Your answer should be a plain number; it is taken to be in µM.

*Q* For `CCOC(=O)N1CCN(/[N+]([O-])=N/Oc2ccc([N+](=O)[O-])cc2[N+](=O)[O-])CC1` , write its IC50.
*A* 3.17

* * *

Tested on: H1703/CRL5889
TEST NAME: MTT proliferation assay, JS-K 48 h (Example 3)
Format: cell-based, human
COND: 10 concentrations 50 nM to 50 μM
OUTCOME MEASURE: pIC50
pIC50 field: float, defined as -log10 of concentration (mol/L).

*Q* Output reported pIC50 of the compound `CCOC(=O)N1CCN(/[N+]([O-])=N/Oc2ccc([N+](=O)[O-])cc2[N+](=O)[O-])CC1` on H1703/CRL5889.
*A* 6.40

* * *

Tested on: H1568/CRL5876
TEST NAME: MTT proliferation assay, JS-K 48 h (Example 3)
Assay type: cell-based, human
COND: 10 concentrations 50 nM to 50 μM
OUTCOME MEASURE: IC50 (nM)
Field format: number, assumed nM, no unit text.

*Q* Name the recorded IC50 of the molecule listed here: `CCOC(=O)N1CCN(/[N+]([O-])=N/Oc2ccc([N+](=O)[O-])cc2[N+](=O)[O-])CC1`
*A* 400

* * *

Tested on: H441
TEST NAME: CellTiter 96 MTT cell proliferation assay (Example 9)
Type: cell-based, human
# label 1 = IC50 below 2 µM (exclusive); label 0 = IC50 at/above 2 µM

Worked examples, 3 compounds total:
COMPOUND | SYSTEM UNDER TEST | CLASS ASSIGNMENT
CCOC(=O)N1CCN(/[N+]([O-])=N/Oc2cc(OC)c([N+](=O)[O-])cc2[N+](=O)[O-])CC1 [Compound 9] | H441 | label 0
CCOC(=O)N1CCN(/[N+]([O-])=N/Oc2ccc([N+](=O)[O-])cc2[N+](=O)[O-])CC1 [Compound 1] | H441 | label 1
CCOC(=O)N1CCN(/[N+]([O-])=N/Oc2cc(C)c([N+](=O)[O-])cc2[N+](=O)[O-])CC1 [Compound 6] | H441 | label 1

Attention now shifts to the item below.
*Q* Given the entry CCOC(=O)N1CCCN(/[N+]([O-])=N/Oc2cc(OC)c([N+](=O)[O-])cc2[N+](=O)[O-])CC1 [Compound 11] , would its reported IC50 be below 2 µM?
*A* label 0
